The origin of these recorded values is paper PMC12249711.

Record form. Attribute: Pain Threshold. Fill in for each entry.
- Test system: rats
- measurementDescription: Carrageenan-induced mechanical hyperalgesia (pain pressure threshold, Randall-Selitto)
- Assay type: in vivo, Wistar rats
- conditionDescription: 10 mg/kg i.p.; 2 h after carrageenan; mean ± SEM, rats
- Protocol: The acute and local inflammation and paw edema was induced by intraplantar (i.pl.) injection of 0.1 mL of 1% carrageenan solution in PBS into the rat’s right hind paw, according to the modified method of Winter and Lence, as described previously; (n = 84). The paw volume was measured using the dislocation of the water column of the plethysmometer (Type a, 7140; Plethysmometer, Ugo Basile, Gemonio, Italy) before (V0) and at 1, 2, and 3 h (V1, V2, V3) after i.pl. carrageenan injection. […]
Answers are plain numbers, in g.

// solved cases for Pain Threshold follow
compound: O=C1c2ccccc2C(=O)N1CC(O)CN1CCN(c2ccccc2)CC1 (stereo not shown)
testSystem: rats
Pain Threshold [g]: 142.5

compound: O=C1c2ccccc2C(=O)N1CC(O)CN1CCN(C(c2ccccc2)c2ccccc2)CC1 (stereo not shown)
testSystem: rats
Pain Threshold [g]: 141.7

# input for lookup
// query Pain Threshold value for entry O=C1c2ccccc2C(=O)N1CC(O)CN1CCN(c2cccc(C(F)(F)F)c2)CC1 (stereo not shown) 142.5

---

- measurementDescription: Pharmacokinetic study after single i.p. administration, serum and brain concentrations by LC-MS/MS, non-compartmental analysis
- Format: in vivo, Albino Swiss mice
- conditionDescription: Albino Swiss, mouse, ip; brain; mice, 5 mg/kg i.p.
parameter: MRT (h)
Answers are plain numbers, in h.

// solved cases for MRT follow
molecule: O=C1c2ccccc2C(=O)N1CC(O)CN1CCN(c2ccccc2)CC1 (stereo not shown) [Compound F1]
displayUnit: h
MRT: 1.36
--
molecule: O=C1c2ccccc2C(=O)N1CC(O)CN1CCN(C(c2ccccc2)c2ccccc2)CC1 (stereo not shown) [Compound F4]
displayUnit: h
MRT: 1.63

Parameters: items (list). Returns: MRT for each item.
1. O=C1c2ccccc2C(=O)N1CC(O)CN1CCN(c2cccc(C(F)(F)F)c2)CC1 (stereo not shown) [Compound F3]
2. COc1ccccc1N1CCN(CC(O)CN2C(=O)c3ccccc3C2=O)CC1 (stereo not shown) [Compound F2]

[3.16, 1.41]

---

- Test system: rats
- measurementDescription: Carrageenan-induced paw edema (plethysmometer)
- Assay type: in vivo, Wistar rats
- conditionDescription: 20 mg/kg i.p.; 1 h after carrageenan; mean ± SEM, rats
Record form. Attribute: Change in Edema Volume. Fill in for each entry.
Just the number plus its unit, please.

// solved cases for Change in Edema Volume follow
compound: O=C1c2ccccc2C(=O)N1CC(O)CN1CCN(C(c2ccccc2)c2ccccc2)CC1 (stereo not shown)
Change in Edema Volume: 1.23 ± 0.01 mL
//
compound: O=C1c2ccccc2C(=O)N1CC(O)CN1CCN(c2cccc(C(F)(F)F)c2)CC1 (stereo not shown)
Change in Edema Volume: 1.14 ± 0.05 mL
//
compound: COc1ccccc1N1CCN(CC(O)CN2C(=O)c3ccccc3C2=O)CC1 (stereo not shown)
Change in Edema Volume: 1.15 ± 0.08 mL

# input for lookup
// query Change in Edema Volume value for entry O=C1c2ccccc2C(=O)N1CC(O)CN1CCN(c2ccccc2)CC1 (stereo not shown) 1.09 ± 0.02 mL

---

Record form. Attribute: k el. Fill in for each entry.
- measurementDescription: Pharmacokinetic study after single i.p. administration, serum and brain concentrations by LC-MS/MS, non-compartmental analysis
- Format: in vivo, Albino Swiss mice
- conditionDescription: Albino Swiss, mouse, ip; brain; mice, 5 mg/kg i.p.; read-out: λz (terminal elimination rate constant) (converted)
Give bare numbers, in s⁻¹.

// solved cases for k el follow
compound: O=C1c2ccccc2C(=O)N1CC(O)CN1CCN(c2ccccc2)CC1 (stereo not shown)
displayUnit: s⁻¹
k el: 0.000211

compound: O=C1c2ccccc2C(=O)N1CC(O)CN1CCN(c2cccc(C(F)(F)F)c2)CC1 (stereo not shown)
displayUnit: s⁻¹
k el: 0.000147

compound: COc1ccccc1N1CCN(CC(O)CN2C(=O)c3ccccc3C2=O)CC1 (stereo not shown)
displayUnit: s⁻¹
k el: 0.000214

# input for lookup
// query k el value for entry O=C1c2ccccc2C(=O)N1CC(O)CN1CCN(C(c2ccccc2)c2ccccc2)CC1 (stereo not shown) 0.000247
